- measurement target: UniProtKB O43451
- Sequence (O43451 whole entry, looked up): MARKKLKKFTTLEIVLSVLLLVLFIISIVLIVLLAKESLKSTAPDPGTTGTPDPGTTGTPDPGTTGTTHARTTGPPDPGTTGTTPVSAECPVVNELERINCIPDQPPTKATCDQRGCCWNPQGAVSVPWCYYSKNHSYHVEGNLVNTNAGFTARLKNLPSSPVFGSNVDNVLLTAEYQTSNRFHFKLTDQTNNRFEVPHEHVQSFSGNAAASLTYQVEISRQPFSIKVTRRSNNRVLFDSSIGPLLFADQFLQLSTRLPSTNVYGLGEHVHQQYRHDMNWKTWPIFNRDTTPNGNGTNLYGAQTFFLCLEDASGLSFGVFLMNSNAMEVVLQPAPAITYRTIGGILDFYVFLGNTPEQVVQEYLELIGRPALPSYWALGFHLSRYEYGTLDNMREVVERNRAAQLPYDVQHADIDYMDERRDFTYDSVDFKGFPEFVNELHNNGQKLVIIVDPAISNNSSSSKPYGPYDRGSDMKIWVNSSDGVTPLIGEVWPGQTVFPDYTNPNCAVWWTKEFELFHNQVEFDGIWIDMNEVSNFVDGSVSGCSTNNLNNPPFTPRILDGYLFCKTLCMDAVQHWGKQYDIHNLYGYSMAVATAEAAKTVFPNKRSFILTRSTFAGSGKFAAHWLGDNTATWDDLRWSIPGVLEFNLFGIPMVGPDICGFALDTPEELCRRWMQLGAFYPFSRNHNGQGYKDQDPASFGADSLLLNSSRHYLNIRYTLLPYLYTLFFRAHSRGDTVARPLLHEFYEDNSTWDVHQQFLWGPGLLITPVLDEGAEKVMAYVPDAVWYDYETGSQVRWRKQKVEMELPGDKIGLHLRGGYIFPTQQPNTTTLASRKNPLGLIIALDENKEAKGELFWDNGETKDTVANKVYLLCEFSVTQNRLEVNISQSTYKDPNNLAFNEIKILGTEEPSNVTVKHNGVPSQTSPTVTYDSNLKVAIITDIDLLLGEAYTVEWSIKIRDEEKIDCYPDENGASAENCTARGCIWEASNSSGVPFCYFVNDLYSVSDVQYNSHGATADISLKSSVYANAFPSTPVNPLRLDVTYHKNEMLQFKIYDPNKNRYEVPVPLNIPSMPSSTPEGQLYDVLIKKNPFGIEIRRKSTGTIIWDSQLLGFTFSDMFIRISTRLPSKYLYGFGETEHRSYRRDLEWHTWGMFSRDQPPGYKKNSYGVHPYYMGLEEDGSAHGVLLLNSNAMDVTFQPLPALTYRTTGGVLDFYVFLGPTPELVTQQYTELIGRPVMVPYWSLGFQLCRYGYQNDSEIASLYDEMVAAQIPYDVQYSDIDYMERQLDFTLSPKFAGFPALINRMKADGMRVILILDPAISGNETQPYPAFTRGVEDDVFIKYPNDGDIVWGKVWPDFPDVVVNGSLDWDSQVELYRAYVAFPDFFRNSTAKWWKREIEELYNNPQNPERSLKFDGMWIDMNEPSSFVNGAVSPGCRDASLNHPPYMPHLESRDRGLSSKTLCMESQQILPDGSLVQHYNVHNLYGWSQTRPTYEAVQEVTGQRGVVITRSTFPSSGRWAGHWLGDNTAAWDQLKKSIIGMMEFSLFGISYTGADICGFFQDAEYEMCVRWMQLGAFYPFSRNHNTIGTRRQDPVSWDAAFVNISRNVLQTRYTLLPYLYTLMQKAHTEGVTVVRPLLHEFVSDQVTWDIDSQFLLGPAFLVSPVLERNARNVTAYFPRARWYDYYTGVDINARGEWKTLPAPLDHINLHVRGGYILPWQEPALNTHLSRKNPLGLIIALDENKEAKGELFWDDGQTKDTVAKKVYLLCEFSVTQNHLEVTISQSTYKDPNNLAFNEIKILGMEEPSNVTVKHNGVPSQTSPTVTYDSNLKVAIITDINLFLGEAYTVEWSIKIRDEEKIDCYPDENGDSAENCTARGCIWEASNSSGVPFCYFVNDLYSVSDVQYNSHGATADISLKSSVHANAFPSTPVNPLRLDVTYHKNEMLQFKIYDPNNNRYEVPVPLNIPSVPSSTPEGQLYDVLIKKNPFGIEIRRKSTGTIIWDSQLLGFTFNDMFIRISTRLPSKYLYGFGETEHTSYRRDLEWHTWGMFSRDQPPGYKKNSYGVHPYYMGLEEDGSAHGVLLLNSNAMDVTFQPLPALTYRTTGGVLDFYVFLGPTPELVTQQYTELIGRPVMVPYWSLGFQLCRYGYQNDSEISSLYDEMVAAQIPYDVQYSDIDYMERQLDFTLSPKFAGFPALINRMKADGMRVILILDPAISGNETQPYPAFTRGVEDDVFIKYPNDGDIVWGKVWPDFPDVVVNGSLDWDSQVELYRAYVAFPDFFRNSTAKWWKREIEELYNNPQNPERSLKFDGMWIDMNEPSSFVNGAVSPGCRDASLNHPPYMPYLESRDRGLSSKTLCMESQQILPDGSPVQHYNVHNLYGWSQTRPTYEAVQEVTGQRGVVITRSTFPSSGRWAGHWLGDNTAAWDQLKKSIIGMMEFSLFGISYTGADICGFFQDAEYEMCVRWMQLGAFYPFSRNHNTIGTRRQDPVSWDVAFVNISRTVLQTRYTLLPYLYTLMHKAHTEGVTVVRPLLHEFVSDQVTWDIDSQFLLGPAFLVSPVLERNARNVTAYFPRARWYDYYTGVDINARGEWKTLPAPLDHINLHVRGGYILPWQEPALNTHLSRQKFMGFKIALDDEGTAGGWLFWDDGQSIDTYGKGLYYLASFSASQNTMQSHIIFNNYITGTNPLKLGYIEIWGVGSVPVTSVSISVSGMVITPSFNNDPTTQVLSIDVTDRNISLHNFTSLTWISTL
- experimental details: Inhibition of alpha glucosidase at 100 uM
Calls of active or inactive are those of the source. The calls are words filed in the database; no cut-off is given here.
property: inhibition

Check out these entries, answers already filled in.
Which inhibition is listed for C=C1CC[C@@H]2[C@]3(C)COC(CCCC)O[C@@H]3CC[C@@]2(C)[C@@H]1C/C=C1/C(=O)OC[C@H]1O (some centres not stated) ?
inactive

Which inhibition is listed for C=C1CC[C@@H]2[C@](C)(CO)[C@H](O)CC[C@@]2(C)/C1=C/C=C1\C=COC1=O ?
inactive

Which inhibition is listed for C[C@]1(CO)[C@H]2CC[C@@]3(CO3)[C@@H](/C=C/C3=CCOC3=O)[C@]2(C)CC[C@H]1O ?
inactive

Which inhibition is listed for C=C1CC[C@@H]2[C@]3(C)COC(C)(C)O[C@@H]3CC[C@@]2(C)[C@@H]1C/C=C1/C(=O)OC[C@H]1O ?
inactive

Which inhibition is listed for C=C1CC[C@@H]2[C@](C)(CO)[C@H](O)CC[C@@]2(C)[C@@H]1/C=C/C1=CC(=C/c2ccc(F)cc2)/OC1=O ?
inactive

Which inhibition is listed for C=C1CC[C@@H]2[C@]3(C)COC(CCCCCC)O[C@@H]3CC[C@@]2(C)[C@@H]1C/C=C1/C(=O)OC[C@H]1O (some centres not stated) ?
20.1%

Attention now shifts to the item below.
Which inhibition is listed for C=C1CC[C@@H]2[C@]3(C)COC(c4ccccc4OC)O[C@@H]3CC[C@@]2(C)[C@@H]1C/C=C1/C(=O)OC[C@H]1O (some centres not stated) ?
5.5%
